// reported IC50 for each item listed
- target entity: human MC5R (Homo sapiens, UniProt P33032)
- Construct: purchased Perkin Elmer RBXMC5M400UA
- Sequence (P33032 whole entry): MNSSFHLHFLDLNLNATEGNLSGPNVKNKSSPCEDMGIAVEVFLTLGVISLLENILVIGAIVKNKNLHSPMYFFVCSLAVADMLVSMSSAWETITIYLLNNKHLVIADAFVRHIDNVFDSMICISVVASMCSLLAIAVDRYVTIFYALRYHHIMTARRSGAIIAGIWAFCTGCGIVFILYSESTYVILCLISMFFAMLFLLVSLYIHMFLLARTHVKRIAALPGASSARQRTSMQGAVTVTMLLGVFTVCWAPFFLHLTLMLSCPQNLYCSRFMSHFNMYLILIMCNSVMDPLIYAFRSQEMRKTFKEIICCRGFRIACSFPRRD
- method description: Human MC5R radioligand binding assay ([125I] NDP-MSH displacement, hMC5R membranes)
- protocol conditions: hMC5R assay as in Example 102; compounds tested as trifluoroacetate or hydrochloride salts, or as free base

Identify the reported IC50 for the following entry. "N=C(N)NCCC[C@@H]1N[C@H](CNC(=O)Cc2ccc(Cl)cc2Cl)CCN(CC(c2ccccc2)c2ccccc2)C1=O" < 1000 nM

---

- target entity: human MC5R (Homo sapiens)
- Construct: purchased Perkin Elmer RBXMC5M400UA
- method description: Human MC5R radioligand binding assay ([125I] NDP-MSH displacement, hMC5R membranes)
- protocol conditions: hMC5R assay as in Example 102; compounds tested as trifluoroacetate or hydrochloride salts, or as free base
// reported IC50 for each item listed

# annotated cases, reported IC50 shown
# molecule, IC50
records = [
    ("CCC(CN1CCC(CNC(=O)c2ccc3cc(Cl)ccc3c2)N[C@@H](C2CCN(CCC(C)C)CC2)C1=O)c1ccccc1 (some centres unmarked)", "< 100 nM"),
    ("N=C(N)NCCC[C@@H]1N[C@H](CNC(=O)COc2ccc(Cl)cc2Cl)CCN(CC(c2ccccc2)c2ccccc2)C1=O", "< 100 nM"),
]

Identify the reported IC50 for the following entry. "CCN(CC)CC[C@@H]1N[C@H](CNC(=O)/C=C/c2ccc(Cl)cc2)CCN(CC(c2ccccc2)c2ccccc2)C1=O" < 100 nM

Identify the reported IC50 for the following entry. "O=C(NC[C@@H]1CCN(CC(c2ccccc2)c2ccccc2)C(=O)[C@H](CCCN2CCCCC2)N1)c1ccc(Cl)c(Cl)c1" < 100 nM

Identify the reported IC50 for the following entry. "Cc1cccc(/C=C/C(=O)NC[C@@H]2CCN(CC(c3ccccc3)c3ccccc3)C(=O)[C@H](CCCNC(=N)N)N2)c1" < 100 nM

Identify the reported IC50 for the following entry. "COc1ccc(C(=O)NC[C@@H]2CCN(CC(c3ccccc3)c3ccccc3)C(=O)[C@H](CCCNC(=N)N)N2)c(OC)c1" < 10000 nM

Identify the reported IC50 for the following entry. "NCCC[C@@H]1N[C@H](CNC(=O)/C=C/c2ccc3ccccc3c2)CCN(CC(c2ccccc2)c2ccccc2)C1=O" < 1000 nM

Identify the reported IC50 for the following entry. "N=C(N)NCCC[C@@H]1N[C@H](CNC(=O)c2ccc3[nH]cnc3c2)CCN(CC(c2ccccc2)c2ccccc2)C1=O" < 10000 nM

Identify the reported IC50 for the following entry. "N=C(N)NCCC[C@@H]1N[C@H](CNC(=O)c2cnc3ccccc3n2)CCN(CC(c2ccccc2)c2ccccc2)C1=O" < 1000 nM

Identify the reported IC50 for the following entry. "N=C(N)NCCC[C@@H]1N[C@H](CNC(=O)c2ccc3ccccc3n2)CCN(CC(c2ccccc2)c2ccccc2)C1=O" < 1000 nM

Identify the reported IC50 for the following entry. "N=C(N)NCCC[C@@H]1N[C@H](CNC(=O)/C=C/c2cccc(O)c2)CCN(CC(c2ccccc2)c2ccccc2)C1=O" < 1000 nM

Identify the reported IC50 for the following entry. "CCC(CC)CN1CC[C@@H](CNC(=O)c2ccc(Cl)c(Cl)c2)N[C@@H](CCN)C1=O" < 1000 nM

Identify the reported IC50 for the following entry. "N=C(N)NCCC[C@@H]1N[C@H](CNC(=O)c2ccc3cc(N)ccc3c2)CCN(CC(c2ccccc2)c2ccccc2)C1=O" < 10000 nM

Identify the reported IC50 for the following entry. "COc1ccc(/C=C/C(=O)NC[C@@H]2CCN(CC(c3ccccc3)c3ccccc3)C(=O)[C@H](CCCNC(=N)N)N2)cc1" < 100 nM

Identify the reported IC50 for the following entry. "N=C(N)NCCC[C@@H]1N[C@H](CNC(=O)/C=C/c2cccc(C(F)(F)F)c2)CCN(CC(c2ccccc2)c2ccccc2)C1=O" < 1000 nM

Identify the reported IC50 for the following entry. "Cc1ccc(C(=O)NC[C@@H]2CCN(CC(c3ccccc3)c3ccccc3)C(=O)[C@H](CCCNC(=N)N)N2)cc1C" < 100 nM
